Answer each item with its documented % Iext'n; seeded extension assay; 25 mole %.
- system_name: natural β-amyloid peptide β-AP1-40 (human)
- Sequence (peptide, as listed by the source): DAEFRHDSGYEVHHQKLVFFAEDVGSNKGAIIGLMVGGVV
- method_summary: cell-based or functional assay
Square brackets hold non-standard residues; d marks the D form. Primed or numbered codes have the meaning given here. * marks the point of attachment. Aic′ = 3-(O-aminoethyl-iso)-cholyl, C[C@H](CCC(=O)*)[C@H]1CC[C@H]2[C@@H]3[C@H](O)C[C@@H]4C[C@@H](OCCN)CC[C@]4(C)[C@H]3C[C@H](O)[C@]12C; Cholyl = C[C@H](CCC(=O)*)[C@H]1CC[C@H]2[C@@H]3[C@H](O)C[C@@H]4C[C@H](O)CC[C@]4(C)[C@H]3C[C@H](O)[C@]12C; Tyr(3-I) = N[C@@H](Cc1ccc(O)c(I)c1)C(=O)O
Numbers only, in %.

Some binders with known % Iext'n; seeded extension assay; 25 mole % results, for comparison:
Cholyl-LVFFA-OH (SMILES CC(C)C[C@H](NC(=O)CC[C@@H](C)[C@H]1CC[C@H]2[C@@H]3[C@H](O)C[C@@H]4C[C@H](O)CC[C@]4(C)[C@H]3C[C@H](O)[C@]12C)C(=O)N[C@H](C(=O)N[C@@H](Cc1ccccc1)C(=O)N[C@@H](Cc1ccccc1)C(=O)N[C@@H](C)C(=O)O)C(C)C) [cholyl-Aβ17-21]    91
Cholyl-LV[Tyr(3-I)]FA-OH [CA-LV(IY)FA-oh]    71
H-[Aic′]LVFFA-OH (SMILES CC(C)C[C@H](NC(=O)CC[C@@H](C)[C@H]1CC[C@H]2[C@@H]3[C@H](O)C[C@@H]4C[C@@H](OCCN)CC[C@]4(C)[C@H]3C[C@H](O)[C@]12C)C(=O)N[C@H](C(=O)N[C@@H](Cc1ccccc1)C(=O)N[C@@H](Cc1ccccc1)C(=O)N[C@@H](C)C(=O)O)C(C)C) [h-(Aic)-LVFFA-oh]    87

Next:
Exam item: I'd like to know its % Iext'n; seeded extension assay; 25 mole %. The binder in question is Cholyl-KTVFF-OH (SMILES CC(C)[C@H](NC(=O)[C@@H](NC(=O)[C@H](CCCCN)NC(=O)CC[C@@H](C)[C@H]1CC[C@H]2[C@@H]3[C@H](O)C[C@@H]4C[C@H](O)CC[C@]4(C)[C@H]3C[C@H](O)[C@]12C)[C@@H](C)O)C(=O)N[C@@H](Cc1ccccc1)C(=O)N[C@@H](Cc1ccccc1)C(=O)O) [CA-KTVFF-oh]
Marked response: 21
